combination cScore with adagrasib: recorded values
Test system: SW837
Assay Details: combination cScore with adagrasib (Bliss gap around IC50) (%PoC); higher = stronger additive effect
Attribute Measured: combination cScore with adagrasib

>>> result("C[C@@H](Oc1cc(-c2cnn(C3CCNCC3)c2)cnc1N)c1c(Cl)ccc(F)c1Cl + C=C(F)C(=O)N1CCN(c2nc(OC[C@@H]3CCCN3C)nc3c2CCN(c2cccc4cccc(Cl)c24)C3)C[C@@H]1CC#N")
12.7
>>> result("Nc1nc2[nH]cc(CCc3ccc(C(=O)N[C@@H](CCC(=O)O)C(=O)O)cc3)c2c(=O)[nH]1 [Pemetrexed] + C=C(F)C(=O)N1CCN(c2nc(OC[C@@H]3CCCN3C)nc3c2CCN(c2cccc4cccc(Cl)c24)C3)C[C@@H]1CC#N")
5.08
>>> result("C#Cc1cccc(Nc2ncnc3cc(OCCOC)c(OCCOC)cc23)c1 [Erlotinib] + C=C(F)C(=O)N1CCN(c2nc(OC[C@@H]3CCCN3C)nc3c2CCN(c2cccc4cccc(Cl)c24)C3)C[C@@H]1CC#N")
19.4
>>> result("CCc1c2c(nc3ccc(O)cc13)-c1cc3c(c(=O)n1C2)COC(=O)[C@]3(O)CC [SN-38] + C=C(F)C(=O)N1CCN(c2nc(OC[C@@H]3CCCN3C)nc3c2CCN(c2cccc4cccc(Cl)c24)C3)C[C@@H]1CC#N")
-1.14

* * *

System: SW837
Assay Details: combination cScore with adagrasib (Bliss gap around IC50) (%PoC); higher = stronger additive effect
Attribute Measured: combination cScore with adagrasib

>>> quantitative_result("Cn1c(=O)n(-c2ccc(C(C)(C)C#N)cc2)c2c3cc(-c4cnc5ccccc5c4)ccc3ncc21 [NVP-BEZ235] + C=C(F)C(=O)N1CCN(c2nc(OC[C@@H]3CCCN3C)nc3c2CCN(c2cccc4cccc(Cl)c24)C3)C[C@@H]1CC#N [adagrasib]")
6.19
>>> quantitative_result("NC(=O)c1ccc(-c2nc(-c3ccccn3)c(-c3ccc4c(c3)OCO4)[nH]2)cc1 + C=C(F)C(=O)N1CCN(c2nc(OC[C@@H]3CCCN3C)nc3c2CCN(c2cccc4cccc(Cl)c24)C3)C[C@@H]1CC#N [adagrasib]")
-9.94
>>> quantitative_result("O=C(C1CC1)N1CC[C@@H](Cn2c(-c3ccc(-c4ccc5occc5c4)cc3)nc3cnccc32)C1 + C=C(F)C(=O)N1CCN(c2nc(OC[C@@H]3CCCN3C)nc3c2CCN(c2cccc4cccc(Cl)c24)C3)C[C@@H]1CC#N [adagrasib]")
7.68
>>> quantitative_result("CN(C)CCCC(=O)Nc1n[nH]c2nnc(-c3ccccc3)cc12 + C=C(F)C(=O)N1CCN(c2nc(OC[C@@H]3CCCN3C)nc3c2CCN(c2cccc4cccc(Cl)c24)C3)C[C@@H]1CC#N [adagrasib]")
-2.5

* * *

Overview of reported combination cScore with adagrasib across a group of compounds:
System: SW837
Assay Details: combination cScore with adagrasib (Bliss gap around IC50) (%PoC); higher = stronger additive effect
Attribute Measured: combination cScore with adagrasib

>>> quantitative_result("CC(C)c1cc(-c2n[nH]c(=O)n2-c2ccc3c(ccn3C)c2)c(O)cc1O [Ganetespib] + C=C(F)C(=O)N1CCN(c2nc(OC[C@@H]3CCCN3C)nc3c2CCN(c2cccc4cccc(Cl)c24)C3)C[C@@H]1CC#N [adagrasib]")
4.14
>>> quantitative_result("CCCC(CCC)C(=O)O [Valproic acid] + C=C(F)C(=O)N1CCN(c2nc(OC[C@@H]3CCCN3C)nc3c2CCN(c2cccc4cccc(Cl)c24)C3)C[C@@H]1CC#N [adagrasib]")
2.04
>>> quantitative_result("O=C(Cc1ccccc1)Nc1nnc(CCSCCc2nnc(NC(=O)Cc3ccccc3)s2)s1 [BPTES] + C=C(F)C(=O)N1CCN(c2nc(OC[C@@H]3CCCN3C)nc3c2CCN(c2cccc4cccc(Cl)c24)C3)C[C@@H]1CC#N [adagrasib]")
7.09
>>> quantitative_result("COc1cc(N2CCC(N3CCN(C)CC3)CC2)ccc1Nc1ncc(Cl)c(Nc2ccccc2S(=O)(=O)C(C)C)n1 [NVP-TAE684] + C=C(F)C(=O)N1CCN(c2nc(OC[C@@H]3CCCN3C)nc3c2CCN(c2cccc4cccc(Cl)c24)C3)C[C@@H]1CC#N [adagrasib]")
23.6
>>> quantitative_result("CC1(N)CCN(c2cnc(-c3cccc(Cl)c3Cl)c(N)n2)CC1 [SHP099] + C=C(F)C(=O)N1CCN(c2nc(OC[C@@H]3CCCN3C)nc3c2CCN(c2cccc4cccc(Cl)c24)C3)C[C@@H]1CC#N [adagrasib]")
14.3
>>> quantitative_result("CC(=O)O[C@H]1C(=O)[C@@]2(C)[C@H]([C@H](OC(=O)c3ccccc3)[C@]3(O)C[C@H](OC(=O)[C@H](O)[C@@H](NC(=O)c4ccccc4)c4ccccc4)C(C)=C1C3(C)C)[C@]1(OC(C)=O)CO[C@@H]1C[C@@H]2O [Paclitaxel] + C=C(F)C(=O)N1CCN(c2nc(OC[C@@H]3CCCN3C)nc3c2CCN(c2cccc4cccc(Cl)c24)C3)C[C@@H]1CC#N [adagrasib]")
2.18
>>> quantitative_result("Cc1ccc(Nc2nccc(N(C)c3ccc4c(C)n(C)nc4c3)n2)cc1S(N)(=O)=O [Pazopanib] + C=C(F)C(=O)N1CCN(c2nc(OC[C@@H]3CCCN3C)nc3c2CCN(c2cccc4cccc(Cl)c24)C3)C[C@@H]1CC#N [adagrasib]")
-7.8
>>> quantitative_result("COc1cccc2c1C(=O)c1c(O)c3c(c(O)c1C2=O)C[C@@](O)(C(C)=O)C[C@@H]3O[C@H]1C[C@H](N)[C@H](O)[C@H](C)O1 [Daunorubicin] + C=C(F)C(=O)N1CCN(c2nc(OC[C@@H]3CCCN3C)nc3c2CCN(c2cccc4cccc(Cl)c24)C3)C[C@@H]1CC#N [adagrasib]")
4.77

* * *

Tested on: NCI-H2122
Assay Details: combination cScore with adagrasib (Bliss gap around IC50) (%PoC); higher = stronger additive effect
// combination cScore with adagrasib lookup, one value per entry
Attribute Measured: combination cScore with adagrasib

>>> quantitative_result("C[C@]1(c2nc3c(C(N)=O)cccc3[nH]2)CCCN1 [Veliparib] + C=C(F)C(=O)N1CCN(c2nc(OC[C@@H]3CCCN3C)nc3c2CCN(c2cccc4cccc(Cl)c24)C3)C[C@@H]1CC#N")
-0.59
>>> quantitative_result("CCCc1cc(C)[nH]c(=O)c1CNC(=O)c1cc(-c2ccnc(N3CCN(C)CC3)c2)cc2c1cnn2C(C)C [GSK343] + C=C(F)C(=O)N1CCN(c2nc(OC[C@@H]3CCCN3C)nc3c2CCN(c2cccc4cccc(Cl)c24)C3)C[C@@H]1CC#N")
15.8
>>> quantitative_result("COc1cc(OC)c(/C=C/S(=O)(=O)Cc2ccc(OC)c(NCC(=O)O)c2)c(OC)c1 [Rigosertib] + C=C(F)C(=O)N1CCN(c2nc(OC[C@@H]3CCCN3C)nc3c2CCN(c2cccc4cccc(Cl)c24)C3)C[C@@H]1CC#N")
1.67
>>> quantitative_result("COc1cc(Nc2ncc(F)c(Nc3ccc4c(n3)N(COP(=O)(O)O)C(=O)C(C)(C)O4)n2)cc(OC)c1OC [Fostamatinib] + C=C(F)C(=O)N1CCN(c2nc(OC[C@@H]3CCCN3C)nc3c2CCN(c2cccc4cccc(Cl)c24)C3)C[C@@H]1CC#N")
17.4
>>> quantitative_result("Cc1nc(Nc2ncc(C(=O)Nc3c(C)cccc3Cl)s2)cc(N2CCN(CCO)CC2)n1 [Dasatinib] + C=C(F)C(=O)N1CCN(c2nc(OC[C@@H]3CCCN3C)nc3c2CCN(c2cccc4cccc(Cl)c24)C3)C[C@@H]1CC#N")
42
>>> quantitative_result("C[C@@H](Oc1cc(-c2cnn(C3CCNCC3)c2)cnc1N)c1c(Cl)ccc(F)c1Cl + C=C(F)C(=O)N1CCN(c2nc(OC[C@@H]3CCCN3C)nc3c2CCN(c2cccc4cccc(Cl)c24)C3)C[C@@H]1CC#N")
6.58
>>> quantitative_result("COc1cc2ncnc(Nc3ccc(F)c(Cl)c3)c2cc1OCCCN1CCOCC1 [Gefitinib] + C=C(F)C(=O)N1CCN(c2nc(OC[C@@H]3CCCN3C)nc3c2CCN(c2cccc4cccc(Cl)c24)C3)C[C@@H]1CC#N")
15.8
>>> quantitative_result("CCCCCOC(=O)Nc1nc(=O)n([C@@H]2O[C@H](C)[C@@H](O)[C@H]2O)cc1F [Capecitabin] + C=C(F)C(=O)N1CCN(c2nc(OC[C@@H]3CCCN3C)nc3c2CCN(c2cccc4cccc(Cl)c24)C3)C[C@@H]1CC#N")
-6.31
>>> quantitative_result("N.N.[Cl][Pt][Cl] [Cisplatin] + C=C(F)C(=O)N1CCN(c2nc(OC[C@@H]3CCCN3C)nc3c2CCN(c2cccc4cccc(Cl)c24)C3)C[C@@H]1CC#N")
-1.07
>>> quantitative_result("CN(NC(=O)CC(=O)NN(C)C(=S)c1ccccc1)C(=S)c1ccccc1 [Elesclomol] + C=C(F)C(=O)N1CCN(c2nc(OC[C@@H]3CCCN3C)nc3c2CCN(c2cccc4cccc(Cl)c24)C3)C[C@@H]1CC#N")
2.19
>>> quantitative_result("N[C@H]1CC[C@H](N[C@@H]2C[C@H]2c2ccccc2)CC1 [ORY-1001] + C=C(F)C(=O)N1CCN(c2nc(OC[C@@H]3CCCN3C)nc3c2CCN(c2cccc4cccc(Cl)c24)C3)C[C@@H]1CC#N")
-4.53
>>> quantitative_result("C[C@@H]1CN(CC(=O)Nc2ccc3c(c2)Cc2cccc(-c4cc(=O)cc(N5CCOCC5)o4)c2S3)C[C@H](C)O1 + C=C(F)C(=O)N1CCN(c2nc(OC[C@@H]3CCCN3C)nc3c2CCN(c2cccc4cccc(Cl)c24)C3)C[C@@H]1CC#N")
18.9
>>> quantitative_result("CC1(C)CCC(c2ccc(Cl)cc2)=C(CN2CCN(c3ccc(C(=O)NS(=O)(=O)c4ccc(N[C@H](CCN5CCOCC5)CSc5ccccc5)c(S(=O)(=O)C(F)(F)F)c4)cc3)CC2)C1 [ABT-263] + C=C(F)C(=O)N1CCN(c2nc(OC[C@@H]3CCCN3C)nc3c2CCN(c2cccc4cccc(Cl)c24)C3)C[C@@H]1CC#N")
12.1
>>> quantitative_result("CN[C@H]1CN(c2ccc3c(=O)c(C(=O)O)cn(-c4nccs4)c3n2)C[C@@H]1OC [Vosaroxin] + C=C(F)C(=O)N1CCN(c2nc(OC[C@@H]3CCCN3C)nc3c2CCN(c2cccc4cccc(Cl)c24)C3)C[C@@H]1CC#N")
5.97
>>> quantitative_result("Nc1nc(Nc2ccc3c(c2)CC[C@@H](N2CCCC2)CC3)nn1-c1cc2c(nn1)-c1ccccc1CCC2 [Bemcentinib] + C=C(F)C(=O)N1CCN(c2nc(OC[C@@H]3CCCN3C)nc3c2CCN(c2cccc4cccc(Cl)c24)C3)C[C@@H]1CC#N")
-0.08
>>> quantitative_result("C[C@@H]1OCC2(CCN(c3cnc(Sc4ccnc(N)c4Cl)c(N)n3)CC2)[C@@H]1N [TNO155] + C=C(F)C(=O)N1CCN(c2nc(OC[C@@H]3CCCN3C)nc3c2CCN(c2cccc4cccc(Cl)c24)C3)C[C@@H]1CC#N")
49
